System: SEM cells
Assay: cell viability relative to DMSO control; higher = less cytotoxic
Settings: HPLM + 10% dialyzed FBS; 48 h; 0.00702 µM
// reported cell viability for each item listed
A number alone suffices; assume %.

Example cases with answers are listed next.
O=C(N[C@H](CO)[C@H](O)c1ccc([N+](=O)[O-])cc1)C(Cl)Cl: 125
CC(=O)Oc1ccccc1C(=O)Nc1ncc([N+](=O)[O-])s1: 89
CN1CC(=O)N2[C@H](c3ccc4c(c3)OCO4)c3[nH]c4ccccc4c3C[C@@H]2C1=O: 97.2

Let us move to another entry and its cell viability.
Can you share its cell viability? I mean this compound: `N[C@@H]1CONC1=O`
103

* * *

// reported cell viability for each item listed
Tested on: P12-Ichikawa
Assay: cell viability relative to DMSO control; higher = less cytotoxic
Conditions: RPMI 5 mM glucose + 10% FBS; 48 h; 1.71 µM
A number alone suffices; assume %.

Example cases with answers are listed next.
CNCC[C@H](Oc1cccc2ccccc12)c1cccs1: 118
COC1=C(OCCCN2CCOCC2)C=CC\3=C1/N=C(/NC(=O)C4=CN=C(N)N=C4)N5CC/N=C35: 56.8
CN1CC(=O)N2[C@H](c3ccc4c(c3)OCO4)c3[nH]c4ccccc4c3C[C@@H]2C1=O: 94.1

Can you share its cell viability? I mean this compound: `Cc1ccnc2c1NC(=O)c1cccnc1N2C1CC1`
115

* * *

Test system: NOMO1
Test: cell viability relative to DMSO control; higher = less cytotoxic
Conditions: RPMI 5 mM glucose + 10% dialyzed FBS; 48 h; 0.569 µM
// reported cell viability for each item listed
A number alone suffices; assume %.

CCCCOc1c(C(=O)c2c(F)cc(C)cc2F)cnc2[nH]ncc12: 83.1

Can you share its cell viability? I mean this compound: `CCc1ccc(/C=C2/SC(=S)NC2=O)cc1`
84.3

Can you share its cell viability? I mean this compound: `CC#CCn1c(N2CCC[C@@H](N)C2)nc2c1c(=O)n(Cc1nc(C)c3ccccc3n1)c(=O)n2C`
100

Can you share its cell viability? I mean this compound: `CC(C)OC(=O)[C@H](C)N[P@](=O)(OC[C@H]1O[C@@H](N2\C=C/C(=O)NC2=O)[C@](C)(F)[C@@H]1O)OC3=CC=CC=C3`
99.8

Can you share its cell viability? I mean this compound: `CC12CC3CC(C)(C1)CC(N)(C3)C2`
135

* * *

System: SEM cells
Experiment: cell viability relative to DMSO control; higher = less cytotoxic
Settings: HPLM + 10% dialyzed FBS; 48 h; 0.000781 µM
// reported cell viability for each item listed
A number alone suffices; assume %.

Example cases with answers are listed next.
O=C(N[C@H](CO)[C@H](O)c1ccc([N+](=O)[O-])cc1)C(Cl)Cl: 115
CN1CC(=O)N2[C@H](c3ccc4c(c3)OCO4)c3[nH]c4ccccc4c3C[C@@H]2C1=O: 98.8
COc1c(C)c2c(c(O)c1C/C=C(\C)CCC(=O)O)C(=O)OC2: 92.9
Cc1ccccc1C(=O)Nc1ccc(C(=O)N2CCCC(O)c3cc(Cl)ccc32)c(C)c1 (centres undefined): 109
COc1ccc(C(=O)c2c(C)n(CCN3CCOCC3)c3cc(I)ccc23)cc1: 85.3
c1nc2c(NC3CCCCC3)nc(Nc3ccc(N4CCOCC4)cc3)nc2[nH]1: 121
O=C(O)CCNC(=O)c1ccc(/N=N/c2ccc(O)c(C(=O)O)c2)cc1: 116
CC(C)(O)CC(=O)NCCn1ccc2ncnc(Nc3ccc(Oc4cccc(C(F)(F)F)c4)c(Cl)c3)c21: 106

Let us move to another entry and its cell viability.
Any idea what cell viability came out for `C=CC(=O)Nc1cc2c(Nc3ccc(F)c(Cl)c3)ncnc2cc1OCCCN1CCOCC1` on SEM cells?
112

* * *

// reported cell viability for each item listed
Test system: NOMO1
Assay: cell viability relative to DMSO control; higher = less cytotoxic
Conditions: RPMI 5 mM glucose + 10% FBS; 48 h; 0.569 µM
A number alone suffices; assume %.

Example cases with answers are listed next.
C=C[C@H]1CN2CCC1C[C@@H]2C(O)c1ccnc2ccc(OC)cc12 (some centres not stated): 119
COc1cccc2c1C(=O)c1c(O)c3c(c(O)c1C2=O)C[C@@](O)(C(=O)CO)C[C@@H]3O[C@H]1C[C@H](N)[C@H](O)[C@H](C)O1: 108
CC[C@@H]([C@H](C)O)n1ncn(-c2ccc(N3CCN(c4ccc(OCC5CO[C@@](Cn6cncn6)(c6ccc(F)cc6F)C5)cc4)CC3)cc2)c1=O (some centres not stated): 87.3
CC#CCn1c(N2CCC[C@@H](N)C2)nc2c1c(=O)n(Cc1nc(C)c3ccccc3n1)c(=O)n2C: 102
CCCCN(CCCC)CC(O)c1cc(Cl)cc2c1-c1ccc(Cl)cc1/C2=C/c1ccc(Cl)cc1 (configuration not stated): 87.5
O=C(CCCN1CCN(c2ccc(F)cc2)CC1)NC1c2ccccc2CSc2ccccc21 (configuration not stated): 112

Any idea what cell viability came out for `CC(C)c1cc(C(C)C)c(CC(=O)N[S+](=O)([O-])Oc2c(C(C)C)cccc2C(C)C)c(C(C)C)c1` on NOMO1?
105

* * *

System: SEM cells
Assay: cell viability relative to DMSO control; higher = less cytotoxic
Conditions: HPLM + 10% dialyzed FBS; 48 h; 15.4 µM
Quantity: cell viability (%)
A number alone suffices; assume %.

Example cases with answers are listed next.
CNCC[C@H](Oc1cccc2ccccc12)c1cccs1: 84.2
CC(N[C@H]1CCCC[C@@H]1NC(=O)c1ccc(Cl)cc1)c1cccc2ccccc12 (some centres undefined): 118
COc1cc2c(cc1OC)CN(CCc1ccc(NC(=O)c3cc(OC)c(OC)cc3NC(=O)c3cnc4ccccc4c3)cc1)CC2: 69
COC(=O)C\1=C(C)\N\C(=C(/C1C2=CC=CC3=NON=C23)C(=O)OC(C)C)C (centres undefined): 90.4
CCN[C@H]1C[C@H](C)[S+](=O)([O-])c2sc([S+](N)(=O)[O-])cc21: 131
C=C[C@H]1CN2CCC1C[C@@H]2C(O)c1ccnc2ccc(OC)cc12 (some centres undefined): 113
CN(C)CC(C)(C)CNc1nn2c(-c3ccccc3)nnc2cc1C1CCC1: 82.7
O=C(O)c1cccnc1Nc1cccc(C(F)(F)F)c1: 120

Let us move to another entry and its cell viability.
Can you share its cell viability? I mean this compound: `C=CC(=O)Nc1cc2c(Nc3ccc(F)c(Cl)c3)ncnc2cc1OCCCN1CCOCC1`
39.2

* * *

Test system: P12-Ichikawa
Assay: cell viability relative to DMSO control; higher = less cytotoxic
Conditions: HPLM + 10% dialyzed FBS; 48 h; 0.0211 µM
Quantity: cell viability (%)
A number alone suffices; assume %.

CNc1nc(Nc2cnn([C@H]3CCN(C4COC4)C[C@@H]3F)c2Cl)ncc1C(F)(F)F: 108
CN1CCCN(CC1)C2=CC=C3C(=O)\C(=C/4SC5=C(C=CC=C5)N4C3=N2)C(=O)NCC6=CN=C(C)C=N6: 108
C=CC(=O)Nc1cc2c(Nc3ccc(F)c(Cl)c3)ncnc2cc1OCCCN1CCOCC1: 120

Can you share its cell viability? I mean this molecule: COc1ccc(C(=O)CC2(O)C(=O)Nc3c(Cl)ccc(Cl)c32)cc1 (stereo not drawn)
114

Can you share its cell viability? I mean this molecule: `CC[C@H]1OC(=O)[C@H](C)C(=O)[C@H](C)[C@@H](O[C@H]2O[C@H](C)C[C@H](N(C)C)[C@H]2O)[C@](C)(OC)C[C@@H](C)C(=O)[C@H](C)[C@H]2N(CCCCn3cnc(-c4cccnc4)c3)C(=O)O[C@]12C`
115

Can you share its cell viability? I mean this molecule: `N[C@@H]1CONC1=O`
105

Can you share its cell viability? I mean this molecule: CC[C@@H]([C@H](C)O)n1ncn(-c2ccc(N3CCN(c4ccc(OCC5CO[C@@](Cn6cncn6)(c6ccc(F)cc6F)C5)cc4)CC3)cc2)c1=O (stereo partly drawn)
96.3

Can you share its cell viability? I mean this molecule: `Nc1ccc([S+](=O)([O-])Nc2ccnn2-c2ccccc2)cc1`
109

* * *

// reported AUC of viability dose-response curve for each item listed
System: NOMO1
Assay: AUC of viability dose-response curve (% viability x log10 dose units); higher = less sensitive
Conditions: RPMI 5 mM glucose + 10% dialyzed FBS; 48 h
No unit in the answer, only the number.

Example cases with answers are listed next.
CN1CC(=O)N2[C@H](c3ccc4c(c3)OCO4)c3[nH]c4ccccc4c3C[C@@H]2C1=O: 449
Nc1ncnc2c1ncn2[C@@H]1O[C@H](CO)C[C@H]1O: 445
COC1=C(OCCCN2CCOCC2)C=C3N=CC=C(OC4=CC=C(C=C4F)\C5=C\N=C(\NC6=CC=C(F)C=C6)N(C)C5=O)C3=C1: 429
CC(N[C@H]1CCCC[C@@H]1NC(=O)c1ccc(Cl)cc1)c1cccc2ccccc12 (some centres undefined): 421

Can you share its AUC of viability dose-response curve? I mean this compound: `O=C(O)c1cccnc1Nc1cccc(C(F)(F)F)c1`
461

Can you share its AUC of viability dose-response curve? I mean this compound: O=C(c1ccccc1)c1ccc2n1CCC2C(=O)O (centres undefined)
464

Can you share its AUC of viability dose-response curve? I mean this compound: `NC(=O)c1ccc(N(C(N)=O)c2c(F)cccc2F)nc1-c1ccc(F)cc1F`
429

Can you share its AUC of viability dose-response curve? I mean this compound: CC(C(=O)O)c1ccc2c(c1)CC(=O)c1ccccc1S2 (centres undefined)
415

Can you share its AUC of viability dose-response curve? I mean this compound: `CCCCC(C)(C)[C@H](O)/C=C/[C@H]1[C@H](O)CC(=O)[C@@H]1C/C=C\CCCC(=O)O`
431
